experiment: log P determination by HPLC retention times (alkan-2-one calibration); details: log P(HCOOH), HCOOH; preparation examples in the text
Metric: chromatographic logP
// print number alone

Query string: Indicate the recorded chromatographic logP value for this compound: `FC(F)(F)c1cccc(-c2nn3c(c2I)CCC3)c1`
Result string: 4.11

Query string: Determine from records and report chromatographic logP for `OCc1cc(-c2ccccc2)n[nH]1`
Result string: 1.14

Query string: Specify reported chromatographic logP for the compound shown: `Ic1c(-c2cccs2)nn2c1CCCC2`
Result string: 3.45

Query string: Could you please provide reported chromatographic logP for `Ic1c(-c2ccsc2)nn2c1CCCC2` ? Thanks!
Result string: 3.4

Query string: Report chromatographic logP for COC(=O)c1c(-c2ccc(F)cc2)nn2c1CCC2C (stereo not drawn)
Result string: 2.84

Query string: Tell me its chromatographic logP given COC(=O)c1c(-c2ccc(F)cc2)nn2c1C(C)CC2 (stereo not drawn) as the entry.
Result string: 2.71

Query string: Answer with the recorded chromatographic logP for the compound listed here: `COc1ccc(-c2nn3c(c2I)CCC3)cc1`
Result string: 3.01

Query string: Consider the compound `Nc1cc(-c2c(-c3ccc(F)cc3)nn3c2CCCC3)ccn1` . State its measured chromatographic logP.
Result string: 1.21

Query string: Determine from records and report chromatographic logP for COC(=O)CC(=NN1CCC(C)C1=O)c1ccc(F)cc1 (stereo not drawn)
Result string: 2.09

Query string: Provide chromatographic logP value for the following compound: `CCOC(=O)CC(=NN1CCCC1=O)c1ccccc1F`
Result string: 1.97

Query string: Tell me its chromatographic logP given `CC(C)Nc1cc(-c2c(-c3ccccc3)nn3c2CCC3)ccn1` as the entry.
Result string: 1.21

Query string: In one line, give reported chromatographic logP of the entry `Fc1ccc(-c2nn3c(c2Br)COCC3)cc1` .
Result string: 2.9

Query string: Item `c1ccc(-c2cc3n(n2)CCCC3)cc1` : provide chromatographic logP
Result string: 2.57

Query string: Consider the compound `Fc1ccc(-c2cc3n(n2)CCCC3)cc1` and give its recorded chromatographic logP.
Result string: 2.76

Query string: Give the reported value of chromatographic logP for this record: `Fc1ccc(C#Cc2ccnc(Cl)c2)cc1`
Result string: 3.8

Query string: Give chromatographic logP for the following compound: `Fc1ccc(-c2nn3c(c2I)CCC3)cc1`
Result string: 3.3

Query string: Kindly indicate its recorded chromatographic logP. Item: `FC(F)(F)c1ccc(C#Cc2ccncc2)cc1`
Result string: 2.86

Query string: Provide one value: measured chromatographic logP of `FC(F)(F)c1ccc(-c2cc3n(n2)CCC3)cc1`
Result string: 3.2

Query string: Note chromatographic logP for the compound shown: `c1ccc(-c2cc3n(n2)CCSC3)cc1`
Result string: 2.46

Query string: Determine its reported chromatographic logP: CC1CCN(N=C(c2ccccc2)c2ccccc2)C1=O (stereo not drawn)
Result string: 2.62

Query string: // fetch chromatographic logP given entry `Fc1cc(-c2c(-c3ccccc3)nn3c2CCC3)ccn1`
Result string: 2.53

Query string: Specify measured chromatographic logP for `ClCc1cc(-c2ccccc2)n[nH]1` .
Result string: 2.05

Query string: Quickly give me recorded chromatographic logP for `O=C1CCCN1N=C(c1ccccc1)c1ccccc1`
Result string: 2.23

Query string: Consider the compound `Ic1c(-c2ccccc2)nn2c1CCC2` . State its measured chromatographic logP.
Result string: 3.09

Query string: Give chromatographic logP for CC1CCc2c(C(=O)O)c(-c3ccccc3F)nn21 (stereo not drawn)
Result string: 1.64

Query string: For the compound `Ic1c(-c2ccsc2)nn2c1CCC2` , give its reported chromatographic logP.
Result string: 2.97

Query string: Please look at this compound and report its chromatographic logP: `c1csc(-c2cc3n(n2)CCCC3)c1`
Result string: 2.42

Query string: Indicate the recorded chromatographic logP value for this compound: `Cc1ccc(-c2nn3c(c2I)CCC3)cc1`
Result string: 3.54

Query string: Determine its reported chromatographic logP: `Fc1ccc(-c2cc3n(n2)CCOC3)cc1`
Result string: 2.01

Query string: Give a short answer stating reported chromatographic logP for `Ic1c(-c2ccccc2)nn2c1CCCC2` .
Result string: 3.55

Query string: Entry CC1CCc2c(I)c(-c3ccc(F)cc3)nn21 (stereo not drawn) needs its chromatographic logP filled in; supply it.
Result string: 3.82

Query string: Determine its reported chromatographic logP: `[O-]c1on[n+]2c1CCCC2`
Result string: 0.59

Query string: Recall and state the measured chromatographic logP for `FC(F)(F)c1cccc(-c2cc3n(n2)CCC3)c1` .
Result string: 3.25

Query string: Look up and state reported chromatographic logP for `Fc1ccccc1-c1nn2c(c1Br)CCC2`
Result string: 2.81

Query string: Kindly indicate its recorded chromatographic logP. Item: `COC(=O)Nc1cc(-c2c(-c3ccc(F)cc3)nn3c2CCCC3)ccn1`
Result string: 2.11

Query string: Give the value of chromatographic logP reported for the following: CC(CCC(=O)NN=C(c1ccccc1)c1ccccc1)OS(C)(=O)=O (stereo not drawn)
Result string: 2.82

Query string: Read the entry CC1CCn2nc(-c3ccc(F)cc3)c(I)c21 (stereo not drawn) and write its reported chromatographic logP.
Result string: 3.67

Query string: Identify measured chromatographic logP associated with CC1CCC(=O)N1N=C(c1ccccc1)c1ccccc1 (stereo not drawn)
Result string: 2.73

Query string: Give the measured chromatographic logP for Clc1ccc(C#Cc2ccncc2)cc1 [II-5, 4-{[4-Chlorophenyl]ethynyl}pyridine]
Result string: 2.43
